Molecular target: h-GABA-A α5β3γ2 (Homo sapiens, UniProt P18507+P31644)
Sequence (P31644 32-462): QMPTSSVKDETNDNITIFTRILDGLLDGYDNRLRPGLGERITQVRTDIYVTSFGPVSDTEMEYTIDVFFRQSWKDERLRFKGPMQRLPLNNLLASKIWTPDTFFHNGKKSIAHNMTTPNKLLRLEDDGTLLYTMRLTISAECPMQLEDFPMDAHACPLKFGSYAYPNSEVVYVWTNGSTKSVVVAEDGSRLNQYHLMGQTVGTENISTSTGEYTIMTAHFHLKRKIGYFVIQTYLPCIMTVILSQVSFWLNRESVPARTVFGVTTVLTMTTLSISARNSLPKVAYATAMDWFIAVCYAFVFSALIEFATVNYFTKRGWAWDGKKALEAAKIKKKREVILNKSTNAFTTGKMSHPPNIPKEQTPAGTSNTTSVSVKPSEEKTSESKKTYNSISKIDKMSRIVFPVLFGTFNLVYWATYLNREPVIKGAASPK
Sequence (P28472 26-473 partner): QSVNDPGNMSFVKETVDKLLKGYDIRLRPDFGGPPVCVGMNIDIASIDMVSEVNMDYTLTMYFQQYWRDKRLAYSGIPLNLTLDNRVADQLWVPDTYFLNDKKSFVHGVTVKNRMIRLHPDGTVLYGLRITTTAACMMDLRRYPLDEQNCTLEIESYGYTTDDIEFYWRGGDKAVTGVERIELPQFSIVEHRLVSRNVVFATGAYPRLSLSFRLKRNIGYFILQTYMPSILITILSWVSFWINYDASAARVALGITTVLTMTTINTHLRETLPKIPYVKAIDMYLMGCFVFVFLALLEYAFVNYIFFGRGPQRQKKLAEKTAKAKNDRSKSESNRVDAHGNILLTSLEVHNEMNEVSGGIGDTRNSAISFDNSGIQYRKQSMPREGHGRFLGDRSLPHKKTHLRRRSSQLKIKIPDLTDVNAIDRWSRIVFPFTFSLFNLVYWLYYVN
Sequence (P18507 40-475): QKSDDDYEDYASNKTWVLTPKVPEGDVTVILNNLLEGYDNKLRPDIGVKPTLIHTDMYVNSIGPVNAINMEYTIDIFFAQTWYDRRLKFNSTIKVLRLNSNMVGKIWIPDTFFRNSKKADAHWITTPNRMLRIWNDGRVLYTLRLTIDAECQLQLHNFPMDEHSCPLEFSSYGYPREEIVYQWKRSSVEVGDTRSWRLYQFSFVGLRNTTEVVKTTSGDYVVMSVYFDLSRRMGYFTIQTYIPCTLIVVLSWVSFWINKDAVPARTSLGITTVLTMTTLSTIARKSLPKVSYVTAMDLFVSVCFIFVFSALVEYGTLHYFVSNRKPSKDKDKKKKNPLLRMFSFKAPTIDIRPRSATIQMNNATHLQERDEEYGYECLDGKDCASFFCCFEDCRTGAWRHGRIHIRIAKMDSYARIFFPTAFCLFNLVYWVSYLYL
Assay: Two-electrode voltage clamp electrophysiology in Xenopus laevis oocytes expressing GABAA receptors, modulation of GABA EC20 current
Assay type: cell-based
Parameters: host or cells: Xenopus laevis oocytes micro-injected with RNA transcripts of the subunits
Conditions: test compound at approx. 30 fold its Ki, GABA at EC20; Table 1
attribute_measured: Fold increase h-GABA-A α5β3γ2 oocyte
// return just the number, without any unit appended

Past entries and their recorded results:
> print(dat)
                                   compound  observed.value
1  Cc1ccc(-c2noc(C)c2Cn2ncc(N3CCC(C)(O)CC3)cc2=O)cn1 [Example 119]            2.38
2  Cc1ccc(-c2noc(C)c2Cn2ncc(N3CC4(CC(C(F)(F)F)CCO4)C3)cc2=O)nn1 (single isomer, unassigned) [Example 311]            1.88
3  Cc1ccc(-c2noc(C)c2Cn2ncc(N3CC(OC4CC4)C3)cc2=O)cn1 [Example 136]            1.96
4  Cc1onc(-c2ccc(F)cc2)c1Cn1ncc(N2C[C@@H](C)O[C@@H](C)C2)cc1=O [Example 12]            2.14
5  Cc1ccc(-c2noc(C)c2Cn2ncc(N(C)C3CN(C4CC4)C3)cc2=O)cn1 [Example 137]             2.1

Input line: Requested read-out: Fold increase h-GABA-A α5β3γ2 oocyte. Entry: CCOC1CN(c2cnn(Cc3c(-c4ccc(C)nn4)noc3C)c(=O)c2)C1 [Example 170]
Output line: 2.11

Input line: Also need Cc1ccc(-c2noc(C)c2Cn2ncc(N3CCC(C#N)CC3)cc2=O)cn1 [Example 34] , thanks.
Output line: 3.22

Input line: Let us now turn to Cc1ccc(-c2noc(C)c2Cn2ncc(N3CCN(C4CC4)[C@H](C)C3)cc2=O)cn1 [Example 59]
Output line: 2.57

Input line: Moving on to CCOc1ccc(-c2cnn(Cc3c(-c4ccc(C)nc4)noc3C)c(=O)c2)cc1 [Example 79]
Output line: 2.11

Input line: Now the compound Cc1ccc(-c2noc(C)c2Cn2ncc(-c3ccnc(OC(F)F)c3)cc2=O)cn1 [Example 175]
Output line: 1.86

Input line: Further, for Cc1ccc(-c2noc(C)c2Cn2ncc(N3CC4(CCC(F)CO4)C3)cc2=O)nn1 (single isomer, unassigned) [Example 319] ?
Output line: 1.91

Input line: # iterate: CCO[C@H]1COC2(C1)CN(c1cnn(Cc3c(-c4ccc(C)nc4)noc3C)c(=O)c1)C2 [Example 135]
Output line: 2.19

Input line: Next: Cc1onc(-c2ccc(F)cc2)c1Cn1ncc(N2CCN(C(=O)C3(C)CC3)CC2)cc1=O [Example 15]
Output line: 2.2

Input line: Okay, and Cc1ccc(-c2noc(C)c2Cn2ncc(N3CCC(c4ccnn4C)CC3)cc2=O)cn1 [Example 166] ?
Output line: 2.49

Input line: Could you do the same for Cc1ccc(-c2noc(C)c2Cn2ncc(N3CC4(CC(F)CCO4)C3)cc2=O)nn1 (single isomer, unassigned) [Example 287] , please?
Output line: 1.77

Input line: Entry to check: Cc1ccc(-c2noc(C)c2Cn2ncc(N3C4CCC3COC4)cc2=O)cn1 [Example 35]
Output line: 2.79

Input line: Moving on to the next compound: Cc1onc(-c2ccc(C(F)(F)F)nc2)c1Cn1ncc(N2C[C@@H](C)O[C@@H](C)C2)cc1=O [Example 39]
Output line: 2.98
